test system: Fibroblast; assay: Multiplex assay against human fibroblast; format: toxicity, cell-based; conditions: 12 h, 1 µM, compound concentration 1 uM, replicate 2
# binarize Population Hoechst High Intensity Objects (%): threshold 3% inclusive, high side MET, low side NOT MET

Worked examples, 4 molecules total:
molecule | group-label
N[C@@]1(C(=O)O)CO[C@H]2[C@H](C(=O)O)[C@H]21 [LY-379268] | MET
N#Cc1c(N)nc(SCc2csc(-c3ccc(Cl)cc3)n2)c(C#N)c1-c1ccc(OCCO)cc1 [CAPADENOSON] | NOT MET
O=C(O)c1cc2ccccc2c(Cc2c(O)c(C(=O)O)cc3ccccc23)c1O [PAMOIC ACID] | MET
O=C(NCC(=O)N1CC[C@H](N[C@H]2CC[C@@](O)(c3ccc(-c4ncccn4)cn3)CC2)C1)c1cccc(C(F)(F)F)c1 [PF-4136309] | MET

Next item in the queue.
## Input Dear colleague, could you confirm whether C[C@H]1[C@H]2CC[C@H]3[C@@H]4CC=C5C[C@@H](N(C)C)CC[C@]5(C)[C@H]4CC[C@]23CN1C [CONESSINE] has Population Hoechst High Intensity Objects (%) at or above 3%?
## Output NOT MET

* * *

test system: Fibroblast; experiment: Multiplex assay against human fibroblast; format: toxicity, cell-based; conditions: 12 h, 1 µM, compound concentration 1 uM, replicate 2
Task for the reader: assign each of the following molecules its reported Population Membrane Permeable-Phenotype (%).

Answered examples (4):
molecule | result
CSc1ccccc1N1CCN(CCCCCC(=O)NC2CCCc3ccccc32)CC1.Cl (stereo unspecified) | 9%
O=S(=O)(c1ccccc1)c1cnc2c(N3CCNCC3)cccc2c1 [INTEPIRDINE] | 7%
CC(=O)NCCc1c(Cc2ccccc2)[nH]c2ccccc12 | 9%
CN1CCN(c2nc3cc(C(F)(F)F)ccc3n3cccc23)CC1.O=C(O)/C=C\C(=O)O.O=C(O)/C=C\C(=O)O | 6%

// for each molecule below, give its Population Membrane Permeable-Phenotype (%)
1. C[C@H](NC(=O)c1c(C(F)F)nn(C)c1Oc1cccc(C(F)(F)F)c1)c1ccc(C(=O)O)cc1
2. O=C(NCC(=O)N1CC[C@H](N[C@H]2CC[C@@](O)(c3ccc(-c4ncccn4)cn3)CC2)C1)c1cccc(C(F)(F)F)c1
3. N[C@@]1(C(=O)O)CO[C@H]2[C@H](C(=O)O)[C@H]21
4. Cc1nc2ccc(Oc3ccc(F)cc3)cc2c(=O)n1C[C@H]1CCCN(C(C)C)C1.Cl

## Output
["11%", "13%", "5%", "21%"]

Provide Population Membrane Permeable-Phenotype (%) values for the following items, in order.
1. C[C@H]1[C@H]2CC[C@H]3[C@@H]4CC=C5C[C@@H](N(C)C)CC[C@]5(C)[C@H]4CC[C@]23CN1C
2. CN(C)CCCc1cc(C(=O)Nc2ccc(-c3ccncc3)cc2)ccc1O.Cl.Cl
3. CC1(COc2ccc3c(c2)ncn3-c2ccc3cccc(N4CCC(N)CC4)c3n2)COC1

## Output
1. 7%
2. 4%
3. 7%

* * *

Record form. Attribute: Population Hoechst High Intensity Objects (%). Fill in for each entry.
system: Fibroblast; test: Multiplex assay against human fibroblast; type: toxicity, cell-based; conditions: 48 h, 1 µM, compound concentration 1 uM, replicate 1
Give bare numbers, in %.

Worked cases, Population Hoechst High Intensity Objects (%) given:
molecule | unit | number
O=C1COc2nccc(-c3ccccc3F)c2CN1Cc1cc(C(F)(F)F)cc(C(F)(F)F)c1 | % | 5
CC(=O)NCCc1c(Cc2ccccc2)[nH]c2ccccc12 | % | 5
O=C(NCC(=O)N1CC[C@H](N[C@H]2CC[C@@](O)(c3ccc(-c4ncccn4)cn3)CC2)C1)c1cccc(C(F)(F)F)c1 | % | 2
Cc1nc2ccc(Oc3ccc(F)cc3)cc2c(=O)n1C[C@H]1CCCN(C(C)C)C1.Cl | % | 3
COc1cc(NC(=O)CCN2CCC(OC(=O)Nc3ccccc3-c3ccccc3)CC2)c(Cl)cc1CNC[C@H](O)c1ccc(O)c2[nH]c(=O)ccc12 | % | 3

Record Population Hoechst High Intensity Objects (%) per entry; entries follow.
1. Cc1ccc(F)cc1C(=O)Nc1ccc(C(=O)N2Cc3cccn3Cc3ccccc32)c(Cl)c1
2. CCCC(CCC)C(=O)O
3. CC[C@H]1OC(=O)[C@H](C)[C@@H](O[C@H]2C[C@@](C)(OC)[C@@H](O)[C@H](C)O2)[C@H](C)[C@@H](O[C@@H]2O[C@H](C)C[C@H](N(C)C)[C@H]2O)[C@@]2(C)CC(C)=C(O2)[C@H](C)[C@@H](O)[C@]1(C)O

## Output
[8, 7, 3]

For each listed entry, give its Population Hoechst High Intensity Objects (%).
1. COc1c(C)cc(NC(=O)c2nn(Cc3ccc(F)cc3)c3c2CN(C(=O)c2ccc[nH]2)C[C@]3(C)C(N)=O)cc1C
2. CC1(COc2ccc3c(c2)ncn3-c2ccc3cccc(N4CCC(N)CC4)c3n2)COC1
3. COc1cc(C(=O)N(CCCc2ccccc2)Cc2ccc(CC(=O)O)cc2)cc(OC)c1C

## Output
1. 7
2. 1
3. 1

Here are 5 molecules. What values of Population Hoechst High Intensity Objects (%) were reported for them?
1. CC(C)(C)c1ccc(S(=O)(=O)Nc2ccc(Cl)cc2C(=O)c2cc[n+]([O-])cc2)cc1
2. C[C@H](NC(=O)c1c(C(F)F)nn(C)c1Oc1cccc(C(F)(F)F)c1)c1ccc(C(=O)O)cc1
3. CCNC1(C(N)=O)CCN(c2ncnc3c2nc(-c2ccccc2Cl)n3-c2ccc(Cl)cc2)CC1
4. Oc1c(CN2CCN(c3ccccn3)CC2)cc(Cl)c2cccnc12
5. CNC[C@H](O)c1ccc(O)c(O)c1 [EPINEPHRINE]

## Output
[1, 11, 8, 5, 1]
